- target.entity: T1, c-Src SH2 domain (UniProt P12931-1 151-248, biotin (biotinylated SH2 domain of the selection))
- T1 construct: SH2 domain of c-Src kinase; source: purified
- measurement.description: fluorescence polarisation; competition mode; unlabelled phosphopeptide against 30 nM FITC-Ahx-GDG-pY-EEISPLLL-NH2 and 122.745 nM c-Src SH2 (123.745 to 125.745 in three rows; Table S3)
- particulars: both partners purified
pKd: −log10 of the molar value. Non-standard residues stand in square brackets, D forms with d. pY = N[C@@H](Cc1ccc(OP(=O)(O)O)cc1)C(=O)O
Below, each entry is listed with its recorded pKd.

# binder, pKd
records = [
    ("Ac-QAESRI[pY]DEILQG-NH2 (flank added to the 11-residue stretch (surmised: last residue of the library's constant GQSGQ); CD84, human, around pY296; flank added to the 11-residue stretch (surmised: first residue of the library's constant GGQSG); source: synthetic peptide (SynPeptide, China)) [CD84 pY296]", 7.55),
    ("Ac-QEWRSQ[pY]EALKEG-NH2 (flank added to the 11-residue stretch (surmised: last residue of the library's constant GQSGQ); TRAF3IP3, human, around pY322; flank added to the 11-residue stretch (surmised: first residue of the library's constant GGQSG); source: synthetic peptide (SynPeptide, China)) [TRAF3IP3 pY322]", 5.19),
    ("Ac-QNDGEI[pY]DDIADG-NH2 (flank added to the 11-residue stretch (surmised: last residue of the library's constant GQSGQ); SLAP-130, human, around pY771; flank added to the 11-residue stretch (surmised: first residue of the library's constant GGQSG); source: synthetic peptide (SynPeptide, China)) [SLAP-130 pY771]", 7.03),
    ("Ac-QDINSL[pY]DVSRMG-NH2 (flank added to the 11-residue stretch (surmised: last residue of the library's constant GQSGQ); PLCG2, human, around pY753; flank added to the 11-residue stretch (surmised: first residue of the library's constant GGQSG); also called PLCγ2 pY753; source: synthetic peptide (SynPeptide, China)) [PLCG2 pY 753]", 4.91),
]
